# System: MYB
# procedure-details: HiBiT protein abundance assay, MYB (K562 HiBiT knock-in)
# Assay type: cell-based, human
# condition-notes: HiBiT knock-in K562 cells, 24 hours, top dose 10 μM
# Procedure: Compounds described herein were used to screen for effects on quantitative protein abundance using a HiBit assay system (Promega). Quantitative protein abundance was determined by measuring the protein levels of HiBit-tagged protein targets expressed in cell culture via luminescence using the Nano-Glo HiBiT Lytic Detection System, which uses a split complementation assay format to reconstitute NanoBiT enzyme to generate a luminescent signal. […]
pIC50: −log10 of the molar value.
measured-property: pIC50

>>> recorded_measurement("CNC(=O)c1nc(-c2cc3cn(C)nc3c(C)c2O)nc2ccc(N3CCNC4(CC4)C3)cc12 [Compound 532]")
"> 7.00"

Could you tell me which pIC50 is on file for Cn1cc2c(O)c(-c3cc4ccc(C5CCNCC5)nc4cn3)ccc2n1 [Compound 106] ?
5.00 to 6.00

Could you tell me which pIC50 is on file for Cc1c(O)c(-c2cc(C(C)O)c3nc(N4CCNCC4)ccc3n2)cc2cn(C)nc12 (stereo not drawn) [Compound 364] ?
5.00 to 6.00

Could you tell me which pIC50 is on file for Cc1c(O)c(-c2ccc3nc(C4CCNCC4)ccc3n2)cc2cn(C)nc12 [Compound 101] ?
> 7.00

Could you tell me which pIC50 is on file for Cc1c(O)c(-c2ccc3nc(N4CC[C@@H](NCC5CC5)C4)ccc3n2)cc2cn(C)nc12 (single isomer, unassigned) [Compound 322] ?
> 7.00

Could you tell me which pIC50 is on file for C[C@H]1CN(c2cc(F)c3nc(-c4cc(F)c5nn(C)cc5c4)ccc3c2)C[C@H](C)N1 (single isomer, unassigned) [Compound 760] ?
> 7.00

Reference source for all entries: patent US20250092065A1
